B1: library; the commonest letter at each place (parent)
chain: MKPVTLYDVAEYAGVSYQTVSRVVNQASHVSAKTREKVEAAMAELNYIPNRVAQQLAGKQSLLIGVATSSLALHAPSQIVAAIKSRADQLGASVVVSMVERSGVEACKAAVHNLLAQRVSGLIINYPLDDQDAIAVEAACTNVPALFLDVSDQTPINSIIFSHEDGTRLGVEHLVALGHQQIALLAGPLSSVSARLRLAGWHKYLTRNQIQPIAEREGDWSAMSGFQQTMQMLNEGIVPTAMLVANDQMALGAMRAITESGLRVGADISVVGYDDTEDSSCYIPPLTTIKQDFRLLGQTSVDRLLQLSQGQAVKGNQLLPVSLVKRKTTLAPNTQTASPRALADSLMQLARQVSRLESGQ

# Variants of: B1
# assay-details: Hill coefficient n (dimensionless); higher = steeper dose response
# condition-parameters: with IPTG
Each entry below carries its recorded Hill coefficient n.
measure: Hill coefficient n

INSERT INTO measurements (residue_change, reported) VALUES
  ('I160N R263S L305Q', 1.61),
  ('V136E', 1.5),
  ('G91D V94A R101G S158C T167M E172D A176S F226Y T276S T299A', 1.25),
  ('A72V K84N I210F M254T T336S', 0.934),
  ('F161S', 1.43),
  ('E11K A27G K37N H112L A139V S191P', 1.4),
  ('V95M Q335R Q360R', 1.49),
  ('A27T A87T S102G N316I L330P Q352R', 1.44),
  ('V80L I83M S97T', 1.55),
  ('V80L I83M', 1.37),
  ('V99E A116T T141I S190C', 1.33),
  ('V80L V96E T154I S158R V238D M254I V264I', 1.16),
  ('I83M', 1.48),
  ('S70R V96E T154I S158R V238D M254I V264I', 3),
  ('V94M S190C G200A Q209R R263H Q317L', 1.4),
  ('A82G', 1.3),
  ('R51C', 1.44),
  ('V136E L169P', 2.33),
  ('D88Y A241V N246S L305M L319F P339T A341T L346S', 0.483),
  ('H74Y A92V H112L S151T D165N H179Q', 1.54),
  ('T68I', 1.28),
  ('S69T', 1.64),
  ('V96E T154I S158R V238D M254I V264I', 1.37),
  ('S70R V136E', 1.69),
  ('S70R', 1.44),
  ('S120G M223L F226L L319F R355L', 1.51),
  ('A138T A214V V244L', 1.61),
  ('L169P', 1.34),
  ('L56M', 1.39),
  ('L56M D130E', 1.42),
  ('M42I', 1.43),
  ('Q291L', 1.61),
  ('S93N V99E S102R L198Q S260F A337S', 1.31),
  ('V24L V52M A72T A214V I268V K325Q P332H A337V', 1.59),
  ('D130E', 1.76),
  ('K84E D88Y L90P Q153L A199V L342M R351P S358R', 0.795),
  ('I160N Q231H I289V D302E', 1.67),
  ('S70R S190C', 1.47),
  ('M42L V66I S93N D132V', 1.59),
  ('V136E S279T', 2.42),
  ('S70R A87P V301M E357G', 1.66),
  ('S97T F161V', 1.59),
  ('Q317L', 1.66),
  ('F161L', 1.32),
  ('E36V Q89H D132G A138D E277A Q306E S322T', 1.54),
  ('A87P V301M E357G', 1.18),
  ('A194V', 1.61),
  ('Y273H D278G Q335L E357G', 1.62);
